- assay-comment: NCI Yeast Anticancer Drug Screen. Data for the bub3 strain (AID 167)
- condition-set: S. cerevisiae bub3 mutant strain, at 50.0 µM
- Description: Growth inhibition of yeast strains with defined genetic alterations is measured as a screen for potential anti-cancer activity. Selected strains with alterations in DNA damage repair or cell cycle control were exposed to compounds and growth inhibition was measured relative to vehicle treated controls. The strain used in this assay is bub3
This is part of a sample that, as a whole, favours compounds with a hit. Of some 79,000 tested, about 15% had one in any assay. Active and inactive are the calls of the source. Cut-off read from the data, not from the text of the source: active = growth inhibition above about 70%; inactive = the rest.
Answer with one of the outcomes active, inactive

Qu. Please indicate how the test categorized `c1ccc(CN2CCc3[nH]c4ccccc4c3C2)cc1` .
Ans. inactive

Qu. Please indicate how the test categorized `Nc1ncnc2c1c(-c1ccccc1)cn2-c1ccc(Cl)cc1` .
Ans. inactive

Qu. Please indicate how the test categorized `CCCCCCCCCCCCCCCCCCn1[se]c2ccccc2c1=O` .
Ans. active

Qu. Please indicate how the test categorized `CC(C)(c1ccccc1)c1ccc2[nH]c(C(C)(C)c3ccccc3)c(CC(=O)O)c2c1` .
Ans. active

Qu. Please indicate how the test categorized `CCOP(=O)(OCC)/C(=C\NC(=S)N=Nc1c(O)[nH]c2ccccc12)C(=O)OC` .
Ans. inactive

Qu. Please indicate how the test categorized `O=C(O)CCSCc1cc(C(=O)Nc2ccc(/C=C/c3ccc(NC(=O)c4cc(CSCCC(=O)O)c5cccnc5c4O)cc3S(=O)(=O)O)c(S(=O)(=O)O)c2)c(O)c2ncccc12` .
Ans. active

====

- assay-comment: NCI Yeast Anticancer Drug Screen. Data for the bub3 strain (AID 167)
- condition-set: S. cerevisiae bub3 mutant strain, at 5.0 µM (retest, dose inferred, filed as 0.5)
This is part of a sample that, as a whole, favours compounds with a hit. Of some 79,000 tested, about 15% had one in any assay. Activity calls are given as the source filed them. Cut-off read from the data, not from the text of the source: active = growth inhibition above about 70%; inactive = the rest.
Answer with one of the outcomes YES for active, NO for inactive

Qu. Please indicate how the test categorized `Cn1c(C(C)(C)OC(=O)Oc2ccccc2)cnc1[N+](=O)[O-]` .
Ans. NO

Qu. Please indicate how the test categorized O=C1CC(c2ccccc2)C(=O)N2C(=O)CC(c3ccccc3)C(=O)N12 (centres undefined) .
Ans. NO

Qu. Please indicate how the test categorized CC1SC(=S)N(c2ccc(Cl)cc2)C1=O (centres undefined) .
Ans. NO

Qu. Please indicate how the test categorized `Cc1cc([N+](=O)[O-])cc(Cl)c1O` .
Ans. NO

Qu. Please indicate how the test categorized `Cc1cccc(Nc2c3c(nc4ccccc24)CCCCC3)c1` .
Ans. NO

Qu. Please indicate how the test categorized `O=C(/C=C/c1cccc(Cl)c1)c1ccccc1` .
Ans. NO

Qu. Please indicate how the test categorized `OCC(CO)C1c2cccc3ccc4cccc1c4c23` .
Ans. NO

Qu. Please indicate how the test categorized `Cn1c(-c2ccc(/C=N/NC(N)=NCCCCCCN=C(N)N/N=C/c3ccc(-c4c[n+]5ccccc5n4C)cc3)cc2)c[n+]2ccccc12` .
Ans. YES

Qu. Please indicate how the test categorized `O=C(CC(=O)c1ccccc1)CC1(O)CCCCC1` .
Ans. NO

Qu. Please indicate how the test categorized `CN(C)CC(CN(C)C)C(=O)c1ccc(Oc2ccc(Cl)c(Cl)c2)cc1` .
Ans. NO

Qu. Please indicate how the test categorized `CN=C(N)N/N=C(\C)c1ccc2c(c1)Cc1cc(/C(C)=N/NC(N)=NC)ccc1-2` .
Ans. NO

Qu. Please indicate how the test categorized `C/C(=N\NC(=S)NCc1ccccc1)c1nccnc1C` .
Ans. NO

Qu. Please indicate how the test categorized `CSc1nc(=S)c2[nH]c(C)nc2[nH]1` .
Ans. NO

Qu. Please indicate how the test categorized Clc1ccc(CN2CCCN(Cc3ccc(Cl)cc3)C2C2CCC=CO2)cc1 (centres undefined) .
Ans. NO

Qu. Please indicate how the test categorized `CCCCn1cnc2c(SCc3ccc(F)cc3)nc(N)nc21` .
Ans. NO

Qu. Please indicate how the test categorized CC(NNC(=S)N1CC2CCC(CC2)C1)c1cc2ccccc2cn1 (centres undefined) .
Ans. YES

Qu. Please indicate how the test categorized `Cc1cc2c(cc1C)[n+](=O)c(C(=O)C/C(=N/NC(=O)CC#N)C(=O)Nc1ccccc1C(F)(F)F)c(C)n2[O-]` .
Ans. NO

Qu. Please indicate how the test categorized `O=c1[nH]c2c([N+](=O)[O-])cc(Cl)cc2nc1/C=C(\O)c1ccccc1` .
Ans. NO

Qu. Please indicate how the test categorized `CCOC(=O)N1CCN(CCCOc2ccc(Cl)cc2Cc2ccccc2)CC1` .
Ans. YES

Qu. Please indicate how the test categorized `O=C=Nc1ccccc1-c1ccc([N+](=O)[O-])cc1Cl` .
Ans. NO

Qu. Please indicate how the test categorized `O=S=C(c1ccccc1)N(Cc1ccccc1)Cc1ccccc1` .
Ans. NO

Qu. Please indicate how the test categorized `CCCCCCCCCCCC(=O)N1CCCC1` .
Ans. NO

Qu. Please indicate how the test categorized `CCNCCNc1cc(O)c2c(c1O)C(=O)c1ccccc1C2=O` .
Ans. YES

Qu. Please indicate how the test categorized `O=C(O)c1ccc(/C=C2\COc3ccccc3C2=O)cc1` .
Ans. NO
